# experiment summary: aqueous solubility (LC/MS- or HPLC-based assay)
# Type: physicochemical
# condition: aqueous solution, pH 6.5, aqueous buffer, pH 6.5; read-out: Solubility pH 6.5
property name: solubility

Requested read-out: solubility. Entry: COC(=O)c1c[nH]c2cc(CN3CCN(c4ccc(C(F)(F)F)cc4)CC3)c(C)cc2c1=O 1 to 19.9 µM

Requested read-out: solubility. Entry: COC(=O)c1c[nH]c2cc(CN3CCN(c4ccc(C(F)(F)F)cc4)CC3)c(OC)cc2c1=O 1 to 19.9 µM

Requested read-out: solubility. Entry: COC(=O)c1c[nH]c2cc(CN3CCN(c4ccc(OC)cc4)CC3)c(OC)cc2c1=O ≥ 80 µM

Requested read-out: solubility. Entry: COC(=O)c1c[nH]c2cc(CN3CCN(c4ccc(F)cc4)CC3)c(C)cc2c1=O 40 to 59.9 µM

Requested read-out: solubility. Entry: COC(=O)c1c[nH]c2cc(CN3CCN(c4ccc(OC)cc4)CC3)ccc2c1=O 40 to 59.9 µM

Requested read-out: solubility. Entry: COC(=O)c1c[nH]c2cc(CN3CCN(c4ccc(OC)cc4)CC3)c(C)cc2c1=O 20 to 39.9 µM

Requested read-out: solubility. Entry: COC(=O)c1c[nH]c2cc(CN3CCN(c4ccc(F)cc4)CC3)c(OC)cc2c1=O ≥ 80 µM

Requested read-out: solubility. Entry: COC(=O)c1c[nH]c2cc(N3CCN(c4ccc(OC)cc4)CC3)c(OC)cc2c1=O 20 to 39.9 µM
